pIC50 for UniProtKB P45452, merged from several publications.
pIC50: −log10 of the molar value.

Recorded result, Cc1sc2nc(C(=O)NCc3cc(F)c4c(c3)NC(=O)CO4)[nH]c(=O)c2c1C , pIC50: > 7.00

Measured pIC50 of O=C1COc2ccc(CNC(=O)c3nc4ccc5c(c4c(=O)[nH]3)OCO5)cc2N1 : > 7.00

The molecule listed as Cc1cc(COc2ccc(S(=O)(=O)N[C@@H]3CCOC[C@@]3(C)C(=O)NO)cc2)c2ccccc2n1 has a reported pIC50 of < 4.78

In plain terms, O=C1COc2ccc(CNC(=O)c3nc4ccsc4c(=O)[nH]3)cc2N1 has a documented pIC50 of > 7.00

Next:
Sure, the documented pIC50 for O=C1COc2ccc(CNC(=O)c3nc4sc5c(c4c(=O)[nH]3)CNCC5)cc2N1 is > 7.00

----------
pIC50: −log10 of the molar value.
// note: pIC50 values for Collagenase 3 (Homo sapiens, UniProt P45452) were reported in different studies

Below, 6 compounds whose answers are already recorded.
Input C#CCN1CC[C@@H](NS(=O)(=O)c2ccc(OCc3cc(C)nc4ccccc34)cc2)[C@@](C)(C(=O)NO)C1 . Output pIC50: < 4.78

Value of measured pIC50 for the entry CC[C@]1(C(=O)NO)CCC[C@H]1N(C)S(=O)(=O)c1ccc(OCc2cc(C)nc3ccccc23)cc1 : < 5.00

pIC50 reading for COc1ccc(Cl)cc1C1(Cn2cccc(C)c2=O)NC(=O)NC1=O (centres unmarked) : < 4.00

The reported pIC50 of the compound O=C1COc2ccc(CNC(=O)c3ncnc4c(NS(=O)(=O)c5ccc(Cl)cc5)c[nH]c34)cc2N1 was 4.70 to 7.00

Please fill in: pIC50 reported for O=C(NCc1cccc(N2CCOCC2)c1)c1nc2sc3c(c2c(=O)[nH]1)CCC3 = > 7.00

Kindly note the recorded pIC50 for O=C(NO)[C@H]1CN(C(=O)CN2CCCCC2)CCN1S(=O)(=O)c1cc(F)c(Oc2ccc(Cl)cc2)c(F)c1 , which is > 7.30

Others:
The recorded pIC50 for entry CS(=O)(=O)N1CCc2ccc(CNC(=O)c3nc4sc5c(c4c(=O)[nH]3)CCC5)cc2C1 equals 4.70 to 7.00

Reported pIC50 ( CN(C)c1cccc2c(S(=O)(=O)N3CCN(S(=O)(=O)c4cc(F)c(Oc5ccc(Cl)cc5)c(F)c4)[C@@H](C(=O)NO)C3)cccc12 ) = > 7.30

----------
A compilation of published pIC50 results with Collagenase 3 (Homo sapiens).
A value of pIC50 is the negative decimal logarithm of a concentration given in moles per litre.

Recorded pIC50 (compound CNC(=O)[C@@H](NC(=O)c1ccc(-c2ccc(NC(=O)c3cc(C)[nH]n3)cc2)o1)C1CCCCC1 ): 7.06

The compound identified as COC(=O)c1cc(-c2ccc3[nH]c(-c4nc(C)no4)cc3c2)n(C)n1 registered its pIC50 at 6.72

Documented pIC50 of Cc1cc(COc2ccc(S(=O)(=O)N[C@H]3CCN(C(=O)NC(C)(C)C)C[C@H]3C(=O)NO)cc2)c2ccccc2n1 : 5.04

Query CCNC(=O)[C@@H](NC(=O)c1ccc(-c2ccc(OCc3ccccc3)cn2)o1)C1CCCCC1 yields pIC50 of 7.77
